- procedure.text: NCI Yeast Anticancer Drug Screen. Data for the rad50 strain (AID 155);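 also: 0% = growth of vehicle-only cultures of the same strain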
- setup.conditions: S. cerevisiae rad50 strain growth inhibition; at 50.0 µM; hits give high values
This is part of a sample that, as a whole, favours compounds with a hit. Of some 79,000 tested, about 15% had one in any assay.
Recorded measurements of growth inhibition, one per entry

compound | growth inhibition / %
Nc1cnc2ccccc2c1 | 10.2
C=CCCCCCCCCCCC | -11.3
CC1=NN(c2ccccc2)C(=O)CC1 | -3.65
O=C(NCCCCCCNC(=O)Nc1cccc(C(F)(F)F)c1)Nc1cccc(C(F)(F)F)c1 | -9.65
Brc1cccc(N=NN2CCCC2)c1 | 14.7
COc1cc2c[n+](C)c3c(c2cc1OC)Cc1cc2c(cc1-3)OCO2 | -27.5
Cc1csc2nc(-c3cccs3)nn12 | 0.75
COc1c(C)c(C)c(OC(C)=O)c(C)c1Br | -10.2
C[C@@]1(NC(=O)Cc2ccccc2)C(=O)N2CCS[C@@]21c1ccccc1 | 0.4
Cc1ccc(C)c(OC(=O)Nc2ccccc2)c1 | -3.15
CC(=O)CC1CCC(CC(C)=O)CC1 (centres undefined) | 13.1
CC(=O)NC1=C/C(=C/COC(C)=O)OC1=O | 22.6
CCOC(=O)c1ccc(NC(=O)Nc2ccccc2C(=O)OC)cc1 | 9.95
CN(C)NC1=NS(=O)(=O)c2cc3c(cc2S1)N(N(C)C)C(=O)c1cc2c(cc1N(N(C)C)C3=O)SC(NN(C)C)=NS2(=O)=O | -6.3
COc1ccc(C)cc1NC(=O)c1c(Br)c(Br)c(Br)c(Br)c1C(=O)O | 4.25
NC1=NN(c2ccccc2)C(=O)C1/C(=N\NC(=O)c1cc2ccccc2cc1O)C(=O)Nc1ccc(Cl)c(Cl)c1 (centres undefined) | 28.7
Cc1cc(NS(=O)(=O)c2ccc(N=[N+]([O-])c3ccc(S(=O)(=O)Nc4cc(C)on4)cc3)cc2)no1 | 10.8
CC1=C(C(=O)Nc2ccccc2C)C(c2ccco2)C(C(=O)Nc2ccccc2C)=C(C)N1C | -7.45
N[C@@H]1c2c(Br)sc(N3CCOCC3)c2C(=O)[C@@H]1O | 10.8
CC(=O)Oc1ncnc2c1cnn2C | -8.95
O=[N+]([O-])c1ccccc1N=Nc1c(O)[nH]c2c(Cl)cc(Cl)cc12 | -25.9
Cn1c2c(c3ccccc31)CC1c3c(c4ccccc4n3C)CC21 (centres undefined) | -79
Brc1ccc(CN(Cc2ccccc2)Cc2ccccc2)cc1 | -13.3
CC(=O)OCC(C)CCC(C)COC(C)=O (centres undefined) | -22.2
O=C(Nc1ccccc1)NC1CCCC1 | 4.65
CNC(=O)CN(CC(N)=O)C(=O)NC | -29.5
COC1=CC(=O)OC(c2ccccc2)(c2ccccc2)C1 | -3.6
CCOC(=O)C(C#N)C1=CC(=O)C(=O)c2ccc(OC)cc21 (centres undefined) | 14
O=C1C(=Cc2ccc([N+](=O)[O-])o2)C(=O)N(CCc2ccccc2)S(=O)(=O)N1CCc1ccccc1 | 38.9
O=C(O)c1cccnc1C(=O)Nc1cccc2ccccc12 | 13.1
Cc1ccc(S(=O)(=O)SCC(=O)c2ccc(Br)cc2)cc1 | 27.4
O=c1cc(O)n(C2=NCCN2)[nH]1 | -6.45
COc1ccccc1Nc1nc2c([nH]1)c(=O)n(C)c(=O)n2C | -33.9
O=C(OCCN=C1c2ccccc2CCc2ccccc21)c1ccccc1 | -12.2
COc1cc(C=O)c([N+](=O)[O-])cc1OC | 14.2
O=S1(=O)CCC(Br)c2ccccc2C1 (centres undefined) | 6.15
CCCCNc1cccc2ccccc12 | 50.2
S=C1CNC(=S)CN1 | -4.15
CCOC(=O)c1ccc(NCC2CNc3ccccc3N2)cc1 (centres undefined) | 36.2
O=C(O)Cc1ccc(Oc2ccc(CC(=O)O)cc2)cc1 | -4.15
CC(=O)c1cc2c(cc1C)C(C)=C(C)C2(C)C | -3.1
O=C(CC12C3C4C1C1C2C3C41CC(=O)NO)NO (centres undefined) | -28.8
O=C(NCCO)c1cc2ccccc2cc1O | -1.9
CCOc1ccc(NC(=O)CC2SC(N)=NC2=O)cc1 (centres undefined) | -15.2
Cc1ccccc1N1C(=O)/C(=C/c2ccc(N(CCC#N)CCC#N)cc2)N=C1c1cc([N+](=O)[O-])ccc1Cl | 4.65
Cc1cc2nc3[nH]c(=O)c4c(n3c2cc1C)CCC4 | 0
BrC1(Br)C2COCOCC21 (centres undefined) | -9.6
CCCCCC1(C)OCC(c2ccccc2)O1 (centres undefined) | -12.8
C=CC(CCCC(C=C)OC(C)=O)OC(C)=O (centres undefined) | 2.2

====

- procedure.text: NCI Yeast Anticancer Drug Screen. Data for the mec2-1 strain (AID 157)
- setup.conditions: S. cerevisiae mec2-1 strain, at 50.0 µM, hits give high values
The panel holds about 79,000 compounds, 15% with a hit somewhere; the sample as a whole holds those more often. *1 amine or outer side, *2 acyl side, *3 side chain or, on linkers, in order; H or OH if unused. Where a SMILES comes first, the peptide text is derived from it. [ ]: non-standard residue; d: D form. X12 = NC(N)=NCC(O)CC(N[*:1])C(=O)[*:2]; Orn = NCCC[CH](N)C(=O)O
property.name: growth inhibition (%)

molecule | property.name | numeric.readout
CCCCOc1ccccc1C(=O)OC | growth inhibition | 5.55
CN1C(c2ccccc2)=C(C#N)C(=O)CC(c2ccco2)N1C (configuration not stated) | growth inhibition | -4.4
CC1CC(NC(=O)/C=C/C(=O)O)CC(C)(C)C1 (configuration not stated) | growth inhibition | 1.05
C=C1CC(C)(COc2ccc3c(C)cc(=O)oc3c2)OC1=O (configuration not stated) | growth inhibition | 46.1
COC(=O)C1CCC=CC1OC(C)=O (configuration not stated) | growth inhibition | -12.6
O=[N+]([O-])C[C@@]12O[C@]3(O)C4C5CC(C6C5C3C61)C42 (some centres not stated) | growth inhibition | 10.5
Cc1ccc(/C(C#N)=C/c2ccccc2)cc1 | growth inhibition | 26.4
Cc1nn(-c2nc(-c3ccccc3)cs2)c(C)c1C | growth inhibition | -8.6
Cc1ccccc1NC(=O)c1ccc(C(=O)Nc2ccccc2C)cc1 | growth inhibition | -10.8
Cc1cccc(C(=O)OCc2ccccc2CN2CCCC2)c1 | growth inhibition | -7.75
Cn1nc(-c2ccccc2)c(C(=O)/C=C/c2ccc(Cl)cc2)c(N2CCCC2)c1=O | growth inhibition | -1.5
COC(=O)c1cc(-c2ccc(OC)cc2)[nH]c(=O)c1C#N | growth inhibition | 21.1
COc1ccccc1NC(=O)CC(=O)NN | growth inhibition | 2.15
Cc1ccc(NC(=O)NCCCCCCNC(=O)Nc2ccc(C)cc2)cc1 | growth inhibition | -13
S=C(S)N1CCN(c2ccc(Cl)c(Cl)c2)CC1 | growth inhibition | -1.65
COc1ccc(NC(C)=O)cc1C1CCC(=O)N1 (configuration not stated) | growth inhibition | 7.25
O=C(Nc1ccc(Cl)cc1)c1ccc(Cl)cc1Cl | growth inhibition | 10.7
Cc1cc2c(cc1C)-c1nn(-c3ccccc3)c(-c3ccc(Cl)cc3)c1CCO2 | growth inhibition | 1.35
CC1=C(C(=O)N(C)c2ccc(Cl)c(C(=O)OC(C)C)c2)SCCO1 | growth inhibition | -50.8
COC(=O)C1=C(C(=O)OC)SC(=C2C3=C(SC(C(=O)OC)=C(C(=O)OC)S3)c3ccccc32)S1 | growth inhibition | -2.15
Cn1nc2ccc([N+](=O)[O-])cc2[n+]1[O-] | growth inhibition | -2.45
CC(=O)CCC(=O)C(=[N+]=[N-])S(=O)(=O)c1ccccc1 | growth inhibition | -0.2
COc1cc(NCCCCCCNCC(C)C)c2nccc(C)c2c1 | growth inhibition | 44.5
O=C1CN(c2ccccc2)Cc2nc(Cl)ccc2N1 | growth inhibition | 7.45
O=C(CC(=O)N1CCOCC1)N1CCOCC1 | growth inhibition | -14.8
CC(O)C(NC(=O)C(CCCN)NC(=O)C(CC(O)CN=C(N)N)NC(=O)C(N)CCCN=C(N)N)C(=O)NC(CCCN)C(=O)NC(CC(O)CN=C(N)N)C(=O)NC(Cc1ccc(O)cc1)C(=O)O (configuration not stated) (tested in a mixture with another compound) (H-R[X12][Orn]T[Orn][X12]Y-OH; configuration not given here) | growth inhibition | -3.3
COc1ccc(C2OC23CC(C)(C)c2ccccc2C3=O)cc1 (configuration not stated) | growth inhibition | 1.65
Cc1cc(Cl)cc(Cl)c1OCC(=O)O | growth inhibition | -1.35
CC1=CC(=O)C(C(C)C)CC1 (configuration not stated) | growth inhibition | -1.05
Nc1ccnc(=O)[nH]1 | growth inhibition | -11.7
Cc1cc(Cl)ccc1NC(=O)C1C(=O)N(c2ccc(Cl)cc2C)C(=O)/C1=N\NC(N)=O (configuration not stated) | growth inhibition | -24.4
CCC(=O)Oc1ccccc1C(C)C | growth inhibition | -14.6
O=C(O)CCC(=O)Nc1cc(C(F)(F)F)ccc1Cl | growth inhibition | 13.7
O=C(Nc1ccccc1O)c1ccc(Cl)c(Cl)c1 | growth inhibition | 32
CC(=O)Oc1ccc2c(c1)c1c(OC(C)=O)c(N(C)C(C)=O)cc(OC(C)=O)c1n2C | growth inhibition | -0.65
Cn1cnnc1Sc1c([N+](=O)[O-])ncn1C | growth inhibition | -5.25
OCCN(Cc1ccccc1)C(c1ccccc1)C(O)c1ccccc1 (configuration not stated) | growth inhibition | 7.65
C/C(=N\S(=O)(=O)c1ccc([N+](=O)[O-])cc1)OCC(C)C | growth inhibition | -8.4
O=C1C(=O)c2ccccc2C(O)=C1c1ccc(Br)cc1 | growth inhibition | -9.5
NC(=O)C(F)(F)c1ccccc1 | growth inhibition | -12.8
CCCCC(CC)CSCCOC(C)OCCSCC(CC)CCCC (configuration not stated) | growth inhibition | 2.25
Cc1c(-c2ccc(N)cc2)c(=O)oc2cc(O)ccc12 | growth inhibition | -11.1
N=C1C=CC2C(=Nc3ccccc3[N+]2=O)N1Cc1ccncc1 (configuration not stated) | growth inhibition | 1.3
CCCOC(=O)CCBr | growth inhibition | 10.1
CC(C)C(CN)(c1ccccc1)c1ccccc1 | growth inhibition | -7.75
Nc1nc(C(=O)O)c([N+](=O)[O-])c(=O)[nH]1 | growth inhibition | -13.7
CCOC(=O)/C(=C\c1ccc(N(C)C)cc1)c1nc2ccccc2[nH]1 | growth inhibition | 21.6
